Source: patent US20210301005A1

Known HEKBlue TGFβ blocking IC50 of a selection of binders
Molecular target: T1, human TGFβ3, mature dimeric form (human, UniProt P10600 301-412)
T1 sequence: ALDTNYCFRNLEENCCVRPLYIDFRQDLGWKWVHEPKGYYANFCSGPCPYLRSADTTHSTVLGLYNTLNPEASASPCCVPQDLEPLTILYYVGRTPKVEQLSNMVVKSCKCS
Assay: cell-based or functional assay
property_name: HEKBlue TGFβ blocking IC50

binder: h6F12.v2 (antibody, human IgG1, kappa, N297G, V domains shown) VH: EVQLQESGPGLVKPSETLSLTCTVSGFSLTTYNVHWVRQPPGKGLEWMGLIWNTGGTRYNSALKSRLTISKDTSKSQVSLKLSSVTAADTAVYYCARDPVPNKWHFDFWGPGTLVTVSS VL: DIQMTQSPSTLSASVGDRVTITCLASEDIYSNLAWYQQKPGKSPKLLIYDARSLQDGVPSRFSGSESGPEYTLTISSLQPDDFATYFCQQHHAYPFTFGQGTKVEIKR
assay_value: > 200 nM
//
binder: h6F12.v3 (antibody, human IgG1, kappa, N297G, V domains shown) VH: EVTLKESGPVLVKPTETLTLTCTVSGFSLTTYNVHWVRQPPGKALEWMGLIWNTGGTRYNSALKSRLTISKDTSKSQVVLTMTNMDPVDTATYYCARDPVPNKWHFDFWGPGTLVTVSS VL: EIVMTQSPATLSVSPGERATLSCLASEDIYSNLAWYQQKPGQSPRLLIYDARSLQDGVPARFSGSESGPEYTLTISSLQSEDFAVYFCQQHHAYPFTFGQGTKVEIKR
assay_value: > 200 nM
